- assay_procedure: AUCt in Sprague-Dawley rat at 10 mg/kg, po by LC-MS/MS analysis
- Type: ADME, organism-based
- condition_info: in vivo
endpoint_label: AUC(0-t)
The reply must contain the numeric value and, after it, the unit.

Ask: Tell me the measured AUC(0-t) of C[C@@H]1CN2c3c(cc4c(N5CC6(CC6)OC5=O)noc4c3F)CC3(C(=O)NC(=O)NC3=O)[C@H]2[C@H](C)O1 , please.
Result: 23600 ng·h/mL

* * *

- Test system: Staphylococcus epidermidis
- assay_procedure: Antibacterial activity against methicillin-sensitive Staphylococcus epidermidis after 18 to 20 hrs by CLSI-protocol based broth microdilution method
- Assay type: functional
Active and inactive are the calls of the source. The rule behind the calls is not given here.
endpoint_label: MIC

Known results for compounds:
> print(dat)
                                   compound           result
1  C[C@@H]1CN2c3c(cc4c(N5CC6(CC6)OC5=O)noc4c3C#N)CC3(C(=O)NC(=O)NC3=O)[C@H]2[C@H](C)O1  0.25 to 2 µg/mL
2  C[C@@H]1CN2c3c(cc4c(N5C(=O)S[C@H]6CCC[C@H]65)noc4c3F)CC3(C(=O)NC(=O)NC3=O)[C@H]2[C@H](C)O1        0.5 µg/mL
3  Cc1ncnc2c(F)c3c(cc12)CC1(C(=O)NC(=O)NC1=O)[C@H]1[C@H](C)O[C@H](C)CN31 (racemic)         inactive
4  C[C@@H]1CN2c3c(cc4c(N5CCOC5=S)noc4c3F)CC3(C(=O)NC(=O)NC3=O)[C@H]2[C@H](C)O1 (racemic)   0.5 to 2 µg/mL

Ask: Value wanted: MIC (Staphylococcus epidermidis) of entry C[C@@H]1CN2c3c(cc4c(N5C[C@H](c6ccccc6)SC5=O)noc4c3F)CC3(C(=O)NC(=O)NC3=O)[C@H]2[C@H](C)O1
Result: 0.5 to 2 µg/mL

Ask: Also need C[C@@H]1CN2c3c(cc4c(N5C(=O)OC[C@@H]5C)noc4c3C#N)CC3(C(=O)NC(=O)NC3=O)[C@H]2[C@H](C)O1 , thanks.
Result: 0.5 to 2 µg/mL

Ask: What do you have for COC[C@H]1CN(c2noc3c(F)c4c(cc23)CC2(C(=O)NC(=O)NC2=O)[C@H]2[C@H](C)O[C@H](C)CN42)C(=O)S1 ?
Result: 0.03 to 0.125 µg/mL

Ask: Entry C[C@@H]1CN2c3c(cc4c(N5C(=O)SC[C@H]5C)noc4c3F)CC3(C(=O)NC(=O)NC3=O)[C@H]2[C@H](C)O1 please
Result: 0.03 to 0.125 µg/mL

Ask: Entry to check: CC[C@@H]1CN(c2noc3c(F)c4c(cc23)CC2(C(=O)NC(=O)NC2=O)[C@H]2[C@H](C)O[C@H](C)CN42)C(=O)S1
Result: < 0.03 µg/mL

Ask: Do the same for C[C@@H]1CN2c3c(cc4c(N5CCOCC5=O)ncnc4c3F)CC3(C(=O)NC(=O)NC3=O)[C@H]2[C@H](C)O1 (racemic) please
Result: inactive

Ask: Queued: C[C@@H]1CN2c3c(cc4c(N5C(=O)OC[C@@H]5C)noc4c3F)CC3(C(=O)NC(=S)NC3=O)[C@H]2[C@H](C)O1
Result: inactive

Ask: Same read-out for C[C@@H]1CN2c3c(cc4c(N5C(=O)OCC5(C)C)noc4c3F)CC3(C(=O)NC(=O)NC3=O)[C@H]2[C@H](C)O1 (racemic) ?
Result: 16 µg/mL

Ask: What would you report for C[C@@H]1CN2c3c(cc4c(N5C[C@H](CO)SC5=O)noc4c3F)CC3(C(=O)NC(=O)NC3=O)[C@H]2[C@H](C)O1 ?
Result: 0.06 to 0.25 µg/mL

Ask: For C[C@@H]1CN2c3c(cc4c(N5C(=O)OC[C@@H]5C)noc4c3F)CC3(C(=O)N(C)C(=O)N(C)C3=O)[C@H]2[C@H](C)O1 then?
Result: inactive

Ask: # iterate: C[C@@H]1CN2c3c(cc4c(N5C(=O)S[C@@H]6CCCC[C@@H]65)noc4c3F)CC3(C(=O)NC(=O)NC3=O)[C@H]2[C@H](C)O1
Result: 0.25 to 0.5 µg/mL

Ask: Lookup C[C@@H]1CN2c3c(cc4c(N5C(=O)SC[C@@H]5C)noc4c3F)CC3(C(=O)NC(=O)NC3=O)[C@H]2[C@H](C)O1
Result: 0.03 to 0.125 µg/mL

Ask: Now give it for C[C@@H]1CN2c3c(cc4c(N5C(=O)SCC56CC6)noc4c3F)CC3(C(=O)NC(=O)NC3=O)[C@H]2[C@H](C)O1 too.
Result: 1 to 4 µg/mL

Ask: Thanks! And C[C@@H]1CN2c3c(cc4c(N5C[C@H](C)SC5=O)noc4c3F)CC3(C(=O)NC(=O)NC3=O)[C@H]2[C@H](C)O1 ?
Result: < 0.03 µg/mL

Ask: Param item: CC(=O)NC[C@H]1CN(c2noc3c(F)c4c(cc23)CC2(C(=O)NC(=O)NC2=O)[C@H]2[C@H](C)O[C@H](C)CN42)C(=O)S1
Result: 2 to 8 µg/mL
